Source: paper PMC9968196

Test system: human colon carcinoma LS174
Test: Cytotoxicity, MTT assay
Assay type: cell-based
Conditions: 72 h
measurement kind: IC50 (µM)

# compound, measurement kind, recorded number
records = [
    ("CCCCCCCCCCOc1ccc(C=C2C(=O)OC(C)(C)OC2=O)cc1OC [3i]", "IC50", 30.5),
]

---

Reported values of IC50 for individual entries
Tested on: non-small cell lung carcinoma A549
Assay: Cytotoxicity, MTT assay
Assay type: cell-based, human
Settings: Homo sapiens; A549; 72 h

# chemical string, IC50
data = [
    ("CCC(=O)Oc1ccc(C=C2C(=O)OC(C)(C)OC2=O)cc1OC", "41.2 µM"),
    ("CCCCCCCCCCOc1ccc(C=C2C(=O)OC(C)(C)OC2=O)cc1OC", "21.8 µM"),
    ("COc1cc(C=C2C(=O)OC(C)(C)OC2=O)ccc1OC(=O)C1CC1", "45.7 µM"),
    ("COc1ccc(C(=O)Oc2ccc(C=C3C(=O)OC(C)(C)OC3=O)cc2OC)cc1", "36.2 µM"),
    ("COc1cc(C=C2C(=O)OC(C)(C)OC2=O)cc([N+](=O)[O-])c1O", "> 200 µM"),
]

---

Reported values of pIC50 for individual entries
Test system: non-small cell lung carcinoma A549
Experiment: Cytotoxicity, MTT assay
Assay type: cell-based, human
Conditions: Homo sapiens; A549; 72 h
pIC50: −log10 of the molar value.
measurement kind: pIC50

# chemical string, recorded number
measured = [
    ("CCCCCCOc1ccc(C=C2C(=O)OC(C)(C)OC2=O)cc1OC", 4.40),
    ("CCCCCCCOc1ccc(C=C2C(=O)OC(C)(C)OC2=O)cc1OC", 4.45),
    ("COc1cc(C=C2C(=O)OC(C)(C)OC2=O)ccc1OCCOCCOCCO", 4.59),
    ("CCCCCCCCOc1ccc(C=C2C(=O)OC(C)(C)OC2=O)cc1OC", 4.56),
]

---

Test system: human cervical adenocarcinoma HeLa
Test: Cytotoxicity, MTT assay
Format: cell-based
Details: Homo sapiens; HeLa; 72 h
pIC50: −log10 of the molar value.

# chemical string, pIC50
records = [
    ("CCC(=O)Oc1ccc(C=C2C(=O)OC(C)(C)OC2=O)cc1OC", 3.99),
    ("COc1cc(C=C2C(=O)OC(C)(C)OC2=O)ccc1OC(=O)C1CC1", 4.07),
    ("CCCCCCCCOc1ccc(C=C2C(=O)OC(C)(C)OC2=O)cc1OC", 4.74),
    ("CCCCCCCCCCOc1ccc(C=C2C(=O)OC(C)(C)OC2=O)cc1OC", 4.80),
    ("COc1ccc(C(=O)Oc2ccc(C=C3C(=O)OC(C)(C)OC3=O)cc2OC)cc1", 4.02),
    ("COc1cc(C=C2C(=O)OC(C)(C)OC2=O)ccc1OCCOCCOCCO", 4.43),
    ("COc1cc(C=C2C(=O)OC(C)(C)OC2=O)cc([N+](=O)[O-])c1O", 3.90),
    ("CCCCCCOc1ccc(C=C2C(=O)OC(C)(C)OC2=O)cc1OC", 4.20),
]

---

System: pancreatic carcinoma PaCa-2
Assay: Cytotoxicity, MTT assay
Format: cell-based
Conditions: Homo sapiens, 72 h
pIC50: −log10 of the molar value.
Label y when pIC50 is at or above 4; anything below gets n.

# chemical string, class
records = [
    ("CCC(=O)Oc1ccc(C=C2C(=O)OC(C)(C)OC2=O)cc1OC", "n"),
    ("COc1cc(C=C2C(=O)OC(C)(C)OC2=O)ccc1OC(=O)C1CC1", "n"),
    ("CCCCCCCCCCOc1ccc(C=C2C(=O)OC(C)(C)OC2=O)cc1OC", "y"),
    ("COc1cc(C=C2C(=O)OC(C)(C)OC2=O)cc([N+](=O)[O-])c1O", "n"),
    ("COc1ccc(C(=O)Oc2ccc(C=C3C(=O)OC(C)(C)OC3=O)cc2OC)cc1", "n"),
    ("COc1cc(C=C2C(=O)OC(C)(C)OC2=O)ccc1OCCOCCOCCO", "n"),
]
